system: SK-MEL-5 melanoma; experiment: NCI-60 one-dose screen, 48 h; conditions: 10 µM unless noted
The panel holds about 83,000 compounds, 20% with a hit somewhere; the sample as a whole holds those more often. Active and inactive are the calls of the source. Rule for the calls: active = growth percent below 10; inactive = the rest.
# valid calls are active, inactive; nothing else

Exercise: Write down the call the test reported for this compound. Item: O=C(O)C1[O][Sb][O]C1C(=O)O (stereo not drawn)
Solution: inactive

Exercise: Tell me the recorded outcome of this test for "CC(=O)N(C)C1=Nc2ccc(Cl)cc2C(c2ccccc2)=[N+]([O-])C1" .
Solution: inactive

Exercise: Identify the outcome logged in this assay for the compound shown: "N#[N+]c1cnc([O-])[nH]c1=O"
Solution: inactive

Exercise: Fill in: this test's call for COc1cccc2c1C(=O)c1c(O)c3c(c(O)c1C2=O)CC(O)(/C(C)=N/NC(=O)CCC(=O)N/N=C(\C)C1(O)Cc2c(O)c4c(c(O)c2C(OC2CC(N)C(O)C(C)O2)C1)C(=O)c1c(OC)cccc1C4=O)CC3OC1CC(N)C(O)C(C)O1 (stereo not drawn) is ___
Solution: active

Exercise: Answer briefly: the call reported for "CNC(=O)Oc1ccccc1-c1ccccc1" in this assay.
Solution: inactive

Exercise: Could you check what this test reported for "CC1=C(SCCC(=O)OCC(=O)NCCC[Te]c2ccccc2)C(=O)c2ccccc2C1=O" ?
Solution: active

Exercise: Give the logged outcome of this assay for the following compound: "CNC(=O)Oc1cccc(OC)c1"
Solution: inactive

Exercise: Would you mind telling me which call this test gave "S=P(NC1CCCCC1)(N1CC1)N1CC1" ?
Solution: inactive

Exercise: For COc1ccc2c(c1)NC1=C(C(=O)OC1)C2c1cc(OC)c(OC)c(OC)c1 (stereo not drawn) , which call appears in the assay record?
Solution: active

Exercise: How was [N-]=[N+]=NC(C(=O)O)c1ccccc1 (stereo not drawn) classified in this test?
Solution: inactive

Exercise: Hi team, can someone confirm the assay call for "CC[C@H](C)[C@H](NC(=O)Nc1ccccc1)C(=O)N(C)[C@H](C[C@@H](OC(C)=O)c1nc(C(=O)N[C@@H](Cc2ccccc2)C[C@H](C)C(=O)OC)cs1)C(C)C" ?
Solution: active

Exercise: Recorded call for CCC(CC)(c1ccccc1)C(OC(N)=O)c1ccccc1 (stereo not drawn) ?
Solution: inactive

Exercise: Returns: the outcome recorded for "O=c1[nH]c2cc(Cl)ccc2n1C1CCN(CCCC(c2ccc(F)cc2)c2ccc(F)cc2)CC1" in this assay.
Solution: active

Exercise: Query: recorded result category for CCCCCCCCCCCCOc1ccc(C(=O)Oc2ccc(CSP3(=O)OCC4OC(n5cnc6c(N)ncnc65)C(F)C4OP(=O)(O)OCC4OC(n5ccc(=O)[nH]c5=O)C(F)C4O3)cc2)cc1 (stereo not drawn) in this test
Solution: inactive

Exercise: Query: recorded result category for COc1cc(C2=NN(c3ccccc3)C(c3sc(N(CCCl)CCCl)nc3Cl)C2)cc(OC)c1OC (stereo not drawn) in this test
Solution: inactive

Exercise: Recorded test outcome, item "CC(/C=N/N=C(N)N)=N/N=C(N)N"
Solution: inactive

Exercise: Hey, what did the test say about "CN(C)P1(N(C)C)=NP(N(C)C)(N(C)C)=NP(N(C)C)(N(C)C)=N1" ?
Solution: inactive

Exercise: Any idea what this test logged for "NC(=O)NC(=O)CI" ?
Solution: inactive

Exercise: Name the outcome recorded for "C[As](=O)(O)c1ccc(C(=O)O)cc1" in the assay.
Solution: inactive

Exercise: Per the records of this test, what outcome belongs to CCCCN(CCCC)CC(O)c1ccccc1 (stereo not drawn) ?
Solution: inactive

Exercise: Which outcome did this test record for the compound "C/C(=N/OC(=O)N(C)C)c1ccc(Cl)cc1Cl" ?
Solution: inactive

Exercise: Can you look up the reported call for "CC[CH2][Pb]([CH2]CC)([CH2]CC)[O]C(=O)C(F)(F)F" for me?
Solution: active

Exercise: Record lookup: outcome of this test for CCC1CN1P(=O)(OCCOC)N1CC1CC (stereo not drawn) ?
Solution: inactive
